test: in vivo; details: mouse, male mice, oral, mortality after 72 hours
Readout: LD50 at 72 h (mg/kg)
Give your result in mg/kg as a bare value.

Answered cases to consult:
>  <Compound>
CC[C@]12CCCN3CCc4c(n(c5ccccc45)C(=NOCC(O)CN4CCN(c5ccccc5OC)CC4)C1)[C@@H]32 (stereo partly drawn) [Example 6]

>  <LD50 at 72 h [mg/kg]>
560

$$$$
>  <Compound>
CC[C@]12CCCN3CCc4c(n(c5ccccc45)C(=NOCCN4CCN(c5ccccc5OC)CC4)C1)[C@@H]32 [Example 5]

>  <LD50 at 72 h [mg/kg]>
660

$$$$
>  <Compound>
CC[C@]12CCCN3CCc4c(n(c5ccccc45)C(=NOCCN(C)C)C1)[C@@H]32 [Example 3]

>  <LD50 at 72 h [mg/kg]>
700

$$$$
>  <Compound>
CC[C@]12CCCN3CCc4c(n(c5ccccc45)C(=NO)C1)[C@@H]32 [Reference Example, (3α,16α)-eburnamenin-14(15H)-one oxime]

>  <LD50 at 72 h [mg/kg]>
510

$$$$
>  <Compound>
CCN(CC)CCON=C1C[C@]2(CC)CCCN3CCc4c(n1c1ccccc41)[C@@H]32 [Example 2]

>  <LD50 at 72 h [mg/kg]>
611

$$$$

Shifting focus to the compound that follows.
Data request: Return reported LD50 at 72 h; argument: CC[C@]12CCCN3CCc4c(n(c5ccccc45)C(=NOCCN4CCCC4)C1)[C@@H]32 [Example 4]
Data returned: 532
